# measured-target: Aspartyl aminopeptidase (Homo sapiens)
# measurement-notes: human M18 aspartyl aminopeptidase inhibitors, dose response, counter-screen for PfM18AAP inhibitor project, biochemical, QFRET fluorogenic readout, recombinant enzyme (AID 588696)
# protocol-conditions: recombinant hM18AAP, H-Glu-NHMec fluorogenic cleavage
pIC50: −log10 of the molar value.
value-kind: pIC50

Sample records with pIC50:
Cc1ccc(-c2nc(-c3ccc(O)c(O)c3)cs2)cc1
4.58
CN(CCc1ccc(O)c(O)c1)c1ccnc2ccccc12
4.51
O=S1(=O)c2ccccc2-c2cc(-c3nc(-c4ccc(O)c(O)c4)[nH]c3-c3ccccc3)ccc21
4.34
CCOc1cccc(-c2nc(-c3ccc(O)c(O)c3)cs2)c1
4.67
Nc1cc(C(=O)c2ccccc2)ccc1O
4.36
Oc1ccc(CCNC(c2ccccc2)c2ccccc2)cc1O
4.38
Oc1ccc(CCNc2cncc3ccccc23)cc1O
4.27
Oc1ccc(CCNc2cccc3ccccc23)cc1O
4.52
Cc1nc(NCCc2ccc(O)c(O)c2)c2c3c(sc2n1)CCC3
4.28
CC(C)(C)C(=O)OCc1nc(-c2ccc(O)c(O)c2)cs1
4.48

(I) Oc1ccc(CCNc2ccc3ccccc3c2)cc1O
(II) O=C1c2ccc3c4c(ccc(c24)C(=O)N1O)CC3
Select one: I or II . Criterion: greater recorded pIC50. API: response body contains the label of the selected item. I

(I) O=C1OCCN1CCc1nc(-c2ccc(O)c(O)c2)cs1
(II) Cc1c(-c2ccccc2)[nH]c(-c2ccc(O)c(O)c2)[n+]1O
(III) Oc1ccc(-c2csc(Cc3cc4ccccc4[nH]3)n2)cc1O
List from greatest to least pIC50. Lab note: record answer as labels in requested order. III, I, II
